Tested on: MCF7 breast
assayText: NCI tumour cell line growth inhibition, 48 h
Listed below: TGI values for each entry.

compound: Cc1ccc2c(c1)c1ccc3c(c1n2C)C(=O)C=CC3=O
TGI: 4.99 µM

compound: COc1cc(O)c2c(=O)c(OC)c(-c3ccc(OC)c(O)c3)oc2c1
TGI: > 100 µM

compound: O=C(NCCCl)O/N=C/c1cccnc1
TGI: > 100 µM

compound: C=C1C(=O)[C@@]23CC[C@@H]4[C@@]5(C)CCC[C@@]4(OC5=O)[C@@]2(C)CC[C@@H]1C3
TGI: 2.21 µM

compound: CC(C)Oc1cccc(N2C(=NCc3c[nH]c4ccccc34)Nc3ccncc3S2(=O)=O)c1
TGI: > 100 µM

compound: Cn1ncc2c(NCc3ccccc3)ncnc21
TGI: > 100 µM

compound: O=C(CN1C(=O)CC(c2ccccc2)(c2ccccc2)C1=O)N1CCN(CCO)CC1
TGI: > 100 µM

compound: COc1cc(Nc2ccc3c(c2)CCC3)nc(OC)n1
TGI: > 100 µM

compound: CSC[C@H](NC(=O)COc1cccc2cnccc12)C(=O)NC(Cc1ccccc1)C(O)C(=O)N1CSC[C@H]1C(=O)NC(C)(C)C (stereo partly specified)
TGI: > 100 µM

compound: CC12c3c4ccc(C=O)c3Oc3ccc(C=O)c(c31)Oc1ccc(C=O)c(c12)O4
TGI: > 25 µM

compound: O=C(O)c1cccc(S(=O)(=O)NN2C(=O)CSC2c2ccc(Cl)cc2Cl)c1 (stereo unspecified)
TGI: > 100 µM

compound: CCN(CCNS(C)(=O)=O)c1ccc(N)c(C)c1
TGI: 27.2 µM

compound: O=C(CC(=O)Nc1ccccc1)NNC(Sc1ccccc1)c1cc(N=Nc2ccc(Br)cc2)ccc1O (stereo unspecified)
TGI: > 10 µM

compound: COc1c(C)c(OCC=C(C)C)cc(CO)c1CO
TGI: > 100 µM

compound: CC1(C)CCc2c(ccc(C(=O)/C=C/c3ccc(O)cc3)c2O)O1
TGI: 29.4 µM

compound: COc1cc2c(cc1OCCCN1C(=O)c3cccc4cccc(c34)C1=O)N=C[C@@H]1CCCN1C2=O
TGI: > 56.7 µM

* * *

Entries and their measured TGI follow.
System: DLD-1 colon
assayText: NCI tumour cell line growth inhibition, 48 h

compound: CCCCCCCCCCCC[N+]12CC[N+](CCN)(CC1)CC2
TGI: > 100 µM
--
compound: CCC(C)(C)n1c(C)nc2c1C(=O)c1ccccc1C2=O
TGI: > 100 µM
--
compound: COc1ccc2c(=O)oc3c(OC)cc(CCN(C)C)c4c(=O)oc1c2c34
TGI: 39.4 µM

* * *

List of TGI values.
Tested on: ACHN renal
assayText: NCI tumour cell line growth inhibition, 48 h

compound: COc1cc(Nc2ccc3c(c2)CCC3)nc(OC)n1
measuredTarget: ACHN renal
TGI: 73.7 µM
--
compound: O=C(O)C(O)C(O)C(O)C(O)CO (stereo not drawn)
measuredTarget: ACHN renal
TGI: > 100 µM
--
compound: Nc1ncnc2c1ccn2C/C=C/CO
measuredTarget: ACHN renal
TGI: > 100 µM
--
compound: CC(C)(C)c1ccc2c(c1)C#Cc1cc3c(cc1OCCCO2)C#Cc1cc(C(C)(C)C)ccc1OCCCO3
measuredTarget: ACHN renal
TGI: > 100 µM
--
compound: COC(=O)c1ccccc1CC1Cc2cccc(C)c2C1=O (stereo not drawn)
measuredTarget: ACHN renal
TGI: > 100 µM
--
compound: Cc1cc(C)nc(NC(=S)Nc2ccc([N+](=O)[O-])cc2)c1
measuredTarget: ACHN renal
TGI: > 100 µM
--
compound: CCOC(=O)c1c2cccccc-2nc1Nc1cccc2c(C)ccnc12
measuredTarget: ACHN renal
TGI: > 10 µM
--
compound: CC1(C)C=CC(=O)C(O)C(C)(C)C1=O (stereo not drawn)
measuredTarget: ACHN renal
TGI: > 100 µM
--
compound: COC1OC2COC(c3ccccc3)OC2C(O)C1OC(=S)c1ccccc1 (stereo not drawn)
measuredTarget: ACHN renal
TGI: 67 µM
--
compound: COc1cc(/C=C2\CCCCC3=C2N=C2SC(C)=CN2C3c2cc(OC)c(OC)c(OC)c2)cc(OC)c1OC (stereo not drawn)
measuredTarget: ACHN renal
TGI: > 100 µM
--
compound: Cc1c2c(c(C)n1-c1ccccc1)C(=O)N(CCN1CCN(c3cccc(C(F)(F)F)c3)CC1)C2=O
measuredTarget: ACHN renal
TGI: > 100 µM
--
compound: C=C(CN(C)Cc1ccccc1)c1ccc(NC(=O)c2ccc(C(=C)CN(C)Cc3ccccc3)cc2)cc1
measuredTarget: ACHN renal
TGI: > 100 µM
--
compound: O=C(CCSC1=NCCCN1)c1ccc(F)cc1
measuredTarget: ACHN renal
TGI: 31.1 µM
--
compound: Clc1sc(Cl)c2c1[C@@H](Cl)C[C@@H]2Br
measuredTarget: ACHN renal
TGI: > 100 µM
--
compound: COc1cc(C=O)ccc1O
measuredTarget: ACHN renal
TGI: > 100 µM
--
compound: O=S(=O)(OI(OI(OS(=O)(=O)C(F)(F)F)c1ccccc1)c1ccccc1)C(F)(F)F
measuredTarget: ACHN renal
TGI: > 100 µM
--
compound: Cn1c2ccccc2c2c(=S)c3ccccc3ccc21
measuredTarget: ACHN renal
TGI: > 100 µM
--
compound: CC(C)C1CN(C(=O)OCc2ccccc2)C2N1C(=O)C2(C)OCc1ccccc1 (stereo not drawn)
measuredTarget: ACHN renal
TGI: > 100 µM
--
compound: O=c1[nH]c(O)c(C=Nc2ccc(-c3nc4ccccc4o3)cc2)c(=O)[nH]1
measuredTarget: ACHN renal
TGI: > 100 µM
--
compound: COc1nc(=O)n(C2C=CC(=O)O2)cc1F (stereo not drawn)
measuredTarget: ACHN renal
TGI: 5.45 µM
--
compound: C/C(=N\NC(N)=O)c1sc(-c2nc(C)c(/C(C)=N/NC(N)=O)s2)nc1C
measuredTarget: ACHN renal
TGI: > 100 µM
--
compound: COc1ccc(/C=C\c2cc(OC)c(OC)c(OC)c2)cc1OCC(=O)O
measuredTarget: ACHN renal
TGI: > 100 µM
--
compound: COc1cc(OC)c(OC)cc1/C=N/NC(=O)N/N=C/c1cc(OC)c(OC)cc1OC
measuredTarget: ACHN renal
TGI: > 100 µM

* * *

Test system: NCI-H226 lung
assayText: NCI tumour cell line growth inhibition, 48 h
Catalogue of compounds with associated TGI
valueKind: TGI

compound: Cc1cc(N(C)C)c2ccccc2[n+]1CCCCCCCCCC[n+]1c(C)cc(N(C)C)c2ccccc21
measuredTarget: NCI-H226 lung
recordedMeasurement: > 100 µM

compound: COc1cc(O)c2c(=O)c(OC)c(-c3ccc(OC)c(O)c3)oc2c1
measuredTarget: NCI-H226 lung
recordedMeasurement: > 100 µM

compound: CCN(Cc1c(F)cccc1OC)c1ccc(CO)c(Cl)c1
measuredTarget: NCI-H226 lung
recordedMeasurement: 0.169 µM

compound: Cc1cccc(NC2=C(Cl)C(=O)c3nc(C)ccc3C2=O)c1
measuredTarget: NCI-H226 lung
recordedMeasurement: 2.78 µM

compound: COc1cc2c3c(n(C)c(=O)c2cc1OC)-c1cc2c(cc1C3=O)OCO2
measuredTarget: NCI-H226 lung
recordedMeasurement: > 100 µM

compound: CCOC(=O)CNC(=O)NC12CC3CC(CC(C3)C1)C2
measuredTarget: NCI-H226 lung
recordedMeasurement: > 473 µM

compound: COc1ccc(CNc2c3ccccc3nc3ccccc23)cc1F
measuredTarget: NCI-H226 lung
recordedMeasurement: 10.4 µM

compound: COc1cc2c(cc1OCCCN1CCN(CCCOc3cc4c(cc3OC)C(=O)N3CC(F)(F)C[C@H]3C=N4)CC1)N=C[C@@H]1CC(F)(F)CN1C2=O
measuredTarget: NCI-H226 lung
recordedMeasurement: 39.8 µM

compound: CC(=O)N/C(=C\c1ccccc1/C=C(\NC(C)=O)c1nc2cc(C)c(C)cc2[nH]1)c1nc2cc(C)c(C)cc2[nH]1
measuredTarget: NCI-H226 lung
recordedMeasurement: > 100 µM

compound: Cc1cc(C)nc(NS(=O)(=O)c2ccc(Nc3c4ccccc4nc4c(C(=O)N5CCN(CCO)CC5)cccc34)cc2)n1
measuredTarget: NCI-H226 lung
recordedMeasurement: > 100 µM

compound: NNc1ncnc2nc[nH]c12
measuredTarget: NCI-H226 lung
recordedMeasurement: > 100 µM

compound: COc1ccc(N2C(=O)C3c4[nH]c5cc(C)ccc5c4C4CCC(C(C)(C)C)CC4C3C2=O)cc1 (stereo not given)
measuredTarget: NCI-H226 lung
recordedMeasurement: > 10 µM

compound: CC(C)C1CN(C(=O)OCc2ccccc2)C2N1C(=O)C2(C)OCc1ccccc1 (stereo not given)
measuredTarget: NCI-H226 lung
recordedMeasurement: 81 µM

compound: COc1ccc(-c2cc(=O)oc3c4c(ccc23)OCN(Cc2ccc(F)cc2)C4)cc1
measuredTarget: NCI-H226 lung
recordedMeasurement: 54.5 µM

compound: CN1CC[C@]2(c3cccc(O)c3)CC(=O)/C(=C/c3ccccc3)[C@@H]1C2
measuredTarget: NCI-H226 lung
recordedMeasurement: 31.9 µM

compound: O=c1[nH]c(=O)n(C2CC(O)C(CO)O2)cc1OS(=O)(=O)C(F)(F)F (stereo not given)
measuredTarget: NCI-H226 lung
recordedMeasurement: > 100 µM

compound: C=C1C(=O)[C@@]23CC[C@@H]4[C@@]5(C)CCC[C@@]4(OC5=O)[C@@]2(C)CC[C@@H]1C3
measuredTarget: NCI-H226 lung
recordedMeasurement: 9.15 µM

compound: c1ccc(C2=NOC(c3ccccc3)N2C23CC4CC(CC(C4)C2)C3)cc1 (stereo not given)
measuredTarget: NCI-H226 lung
recordedMeasurement: > 10 µM

compound: CCc1n[nH]c(=O)n1-c1ccc2ccccc2c1
measuredTarget: NCI-H226 lung
recordedMeasurement: > 100 µM

compound: Nc1ncc2c(n1)-c1ccccc1OC2N1CCCC1 (stereo not given)
measuredTarget: NCI-H226 lung
recordedMeasurement: > 100 µM

compound: OC(C#CCN1CCCC1)(c1ccccc1)c1ccccc1Cl (stereo not given)
measuredTarget: NCI-H226 lung
recordedMeasurement: > 100 µM

compound: C=CCn1c(=O)ccn(/C(=C/C(=O)OCC)C(=O)OCC)c1=O
measuredTarget: NCI-H226 lung
recordedMeasurement: > 31.6 µM

compound: C=CC12CCN(CC1)C(C(O)c1ccnc3ccc(OC)cc13)C2 (stereo not given)
measuredTarget: NCI-H226 lung
recordedMeasurement: > 100 µM

compound: Cc1ccnc(NC(=S)Nc2ccc([N+](=O)[O-])cc2)c1
measuredTarget: NCI-H226 lung
recordedMeasurement: > 100 µM

compound: CCOC(=O)C(NC(=O)CC)(N1CCN(c2cc3c(cc2F)c(=O)c(C(=O)O)cn3C2CC2)CC1)C(F)(F)F (stereo not given)
measuredTarget: NCI-H226 lung
recordedMeasurement: > 100 µM

compound: CC(C(=O)COCc1ccccc1)P1(=O)OC(C)(C)CN1C(C)(C)C (stereo not given)
measuredTarget: NCI-H226 lung
recordedMeasurement: > 100 µM

compound: O=[N+]([O-])c1cccnc1N=Nc1c(O)[nH]c2ccccc12
measuredTarget: NCI-H226 lung
recordedMeasurement: > 100 µM

compound: O=S(=O)(OI(OI(OS(=O)(=O)C(F)(F)F)c1ccccc1)c1ccccc1)C(F)(F)F
measuredTarget: NCI-H226 lung
recordedMeasurement: > 100 µM

compound: COc1nc(=O)n(C2C=CC(=O)O2)cc1F (stereo not given)
measuredTarget: NCI-H226 lung
recordedMeasurement: 56.6 µM

compound: COc1c(C)c(OCC=C(C)C)cc(CO)c1CO
measuredTarget: NCI-H226 lung
recordedMeasurement: > 100 µM

compound: CNc1cc2oc(=O)cc(C)c2cc1C
measuredTarget: NCI-H226 lung
recordedMeasurement: > 100 µM

compound: CSc1csc(-c2ccc(-c3ccc(-c4cc(SC)cs4)s3)s2)c1
measuredTarget: NCI-H226 lung
recordedMeasurement: > 100 µM

compound: CCN(CCNS(C)(=O)=O)c1ccc(N)c(C)c1
measuredTarget: NCI-H226 lung
recordedMeasurement: 32.2 µM

compound: O=C(O)c1ccc(CNCc2ccccc2)cc1
measuredTarget: NCI-H226 lung
recordedMeasurement: > 100 µM

compound: Cc1cc2c(cc1C)[n+](=O)cc(C(=O)C/C(=N/NC(=S)NN)C(=O)Nc1cccc(C(F)(F)F)c1)n2[O-]
measuredTarget: NCI-H226 lung
recordedMeasurement: > 100 µM

compound: CCOC(=O)c1c2cccccc-2nc1Nc1cccc2c(C)ccnc12
measuredTarget: NCI-H226 lung
recordedMeasurement: > 10 µM

compound: CCSc1nc(N=Cc2ccccc2O)c2cn[nH]c2n1
measuredTarget: NCI-H226 lung
recordedMeasurement: 73.9 µM

compound: COC(=O)/C=C/c1cc(OC(C)=O)c2c(c1)C(C(=O)OC)C(c1ccc(OC(C)=O)c(OC(C)=O)c1)O2 (stereo not given)
measuredTarget: NCI-H226 lung
recordedMeasurement: 23.2 µM

compound: Cc1nc2c(N)ncnc2o1
measuredTarget: NCI-H226 lung
recordedMeasurement: > 100 µM

compound: CN(C)Cc1cc(C(=O)/C=C/c2ccc([N+](=O)[O-])cc2)cc(CN(C)C)c1O
measuredTarget: NCI-H226 lung
recordedMeasurement: 19.2 µM

compound: COC1OC2COC(c3ccccc3)OC2C(O)C1OC(=S)c1ccccc1 (stereo not given)
measuredTarget: NCI-H226 lung
recordedMeasurement: > 100 µM

compound: FC(F)(F)c1ccc2nc(NCc3ccccc3)c(-c3ccccc3)nc2c1
measuredTarget: NCI-H226 lung
recordedMeasurement: > 100 µM

compound: O=C1C(=Nc2ccc(Nc3ccccc3)cc2)Oc2ccccc21
measuredTarget: NCI-H226 lung
recordedMeasurement: 16.8 µM

compound: CCOc1ccc(OCC(=O)O)c2c1CCCC2=O
measuredTarget: NCI-H226 lung
recordedMeasurement: > 100 µM

compound: O[C@H]1[C@H](O)[C@@H](O)CN2CC[C@H](O)[C@H]12
measuredTarget: NCI-H226 lung
recordedMeasurement: > 100 µM
